Field: IC50. Provide a value for each of the molecules that follow.

Reading of IC50 for Nc1c(CC(=O)[O-])cccc1C(O)c1ccccc1.[Na+] (configuration not stated) with Cyclooxygenase (Rattus norvegicus, UniProt P35355+Q63921): > 1000 µM

Case `Nc1c(CCO)cccc1C(=O)c1ccccc1` , Cyclooxygenase (Rattus norvegicus, UniProt P35355+Q63921), IC50 recorded as > 100 µM

Tested on Cyclooxygenase (Rattus norvegicus, UniProt P35355+Q63921): `NC(=O)Cc1cccc(C(=O)c2ccccc2)c1N` . Observed IC50: > 100 µM

Readout IC50 for `CCOC(=O)Cc1cccc(C(=O)c2ccc(Cl)cc2)c1N` , test system Cyclooxygenase (Rattus norvegicus, UniProt P35355+Q63921), was 73 µM

The measured IC50 that `Nc1c(CC(=O)[O-])cccc1C(=O)c1ccc(Cl)cc1.[Na+]` showed for Cyclooxygenase (Rattus norvegicus, UniProt P35355+Q63921) is 0.1 µM

For `CN(C)c1c(CC(=O)O)cccc1C(=O)c1ccccc1` on Cyclooxygenase (Rattus norvegicus, UniProt P35355+Q63921), measured IC50 was > 1000 µM

The molecule `Nc1c(CCO)cccc1C(=O)c1ccc(Cl)cc1` , when measured on Cyclooxygenase (Rattus norvegicus, UniProt P35355+Q63921), yielded IC50 of > 1000 µM

Case `O=C(O)Cc1cccc(C(=O)c2ccccc2)c1[N+](=O)[O-]` , Cyclooxygenase (Rattus norvegicus, UniProt P35355+Q63921), IC50 recorded as > 1000 µM

Tested on Cyclooxygenase (Rattus norvegicus, UniProt P35355+Q63921): `NC(=O)Cc1cccc(C(=O)c2ccc(Cl)cc2)c1N` . Observed IC50: > 1000 µM

Item: Nc1c(CCO)cccc1C(O)c1ccccc1 (configuration not stated) | System: Cyclooxygenase (Rattus norvegicus, UniProt P35355+Q63921) | IC50: > 500 µM

Query Nc1c(CC(=O)[O-])cccc1C(=O)c1ccccc1.[Na+] [AMFENAC SODIUM] on Cyclooxygenase (Rattus norvegicus, UniProt P35355+Q63921); IC50 returned: 0.1 µM

Sample `O=C(O)Cc1cccc2c(-c3ccc(Cl)cc3)onc12` , system: Cyclooxygenase (Rattus norvegicus, UniProt P35355+Q63921). Its IC50 is > 500 µM

----------
Organism: Rattus norvegicus
Assay: Pharmacological potency relative to indomethacin for prodrug candidate by adjuvant-induced arthritis assay
Format: functional
API: label(entry) gives class 1 if the entry's Potency is strictly smaller than 0.05; on equality or larger values it gives class 0.

Request: Please state whether Potency is below 0.05 for `NC(=O)Cc1cccc(C(=O)c2ccccc2)c1N`
Response: class 0

Request: Could you please tell me whether Potency recorded for COc1ccc2c(c1)c(CC(=O)O)c(C)n2C(=O)c1ccc(Cl)cc1 [INDOMETHACIN] is less than 0.05?
Response: class 0

Request: # TODO verify Potency < 0.05 strictly for this compound: `CN(C)c1c(CC(=O)O)cccc1C(=O)c1ccccc1`
Response: class 1

Request: Quick check: does `O=C(O)Cc1cccc(C(=O)c2ccccc2)c1[N+](=O)[O-]` have Potency under 0.05?
Response: class 0
